# credit: ChEMBL document CHEMBL1121678

T/C reference
- Tested on: Mus musculus
- Test: In vivo antileukemic activity against P-388 lymphocytic leukemia in BDF1 male mice at 60 mg/kg/day intraperitoneal dose expressed as T/C
- Type: functional
Provide only the numeric value, understood in %.

C=C1C(=O)O[C@@H]2C[C@@H](C)[C@@H]3C=CC(=O)[C@@]3(C)[C@@H](OC(=O)CC(=O)O[C@H]3[C@@H]4C(=C)C(=O)O[C@@H]4C[C@@H](C)[C@@H]4C=CC(=O)[C@]43C)[C@H]12 ... 60

Prompt: I would be grateful if you could share the reported T/C for `C=C1C(=O)O[C@@H]2C[C@@H](C)[C@@H]3C=CC(=O)[C@@]3(C)[C@@H](OC(=O)CCCCC(=O)O[C@H]3[C@@H]4C(=C)C(=O)O[C@@H]4C[C@@H](C)[C@@H]4C=CC(=O)[C@]43C)[C@H]12` .
Response: 40

Prompt: Please give the result for `C=C1C(=O)O[C@@H]2C[C@@H](C)[C@@H]3CCC(=O)[C@@]3(C)[C@@H](OC(=O)CC(=O)OCC)[C@H]12` too.
Response: 114

Prompt: Please give the result for `C=C1C(=O)O[C@@H]2C[C@@H](C)[C@@H]3CCC(=O)[C@@]3(C)[C@@H](OC(=O)CCC(=O)O[C@H]3[C@@H]4C(=C)C(=O)O[C@@H]4C[C@@H](C)[C@@H]4CCC(=O)[C@]43C)[C@H]12` too.
Response: 130

Prompt: Please give the result for O=C(O)CCC(=O)O [SUCCINIC ACID] too.
Response: 111

Prompt: Please give the result for CCOC(=O)CCC(=O)OCC [SUCCINIC ACID DIETHYL ESTER] too.
Response: 120

----------
- System: Mus musculus
- Test: In vivo antileukemic activity against P-388 lymphocytic leukemia in BDF1 male mice at 60 mg/kg/day intraperitoneal dose expressed as T/C
- Type: functional
Measured property: T/C

CC1C(=O)O[C@@H]2C[C@@H](C)[C@@H]3CCC(=O)[C@@]3(C)[C@@H](O)[C@H]12 (stereo partly specified) ... 109%

Prompt: API: value(readout= T/C, system= Mus musculus, query= `C[C@@H]1C[C@H]2OC(=O)[C@@H](C)[C@H]2[C@H](OC(=O)CCC(=O)O[C@H]2[C@@H]3[C@H](C)C(=O)O[C@@H]3C[C@@H](C)[C@@H]3C=CC(=O)[C@]32C)[C@]2(C)C(=O)C=C[C@@H]12` )
Response: 131%

Prompt: Please give the result for `C=C1C(=O)O[C@@H]2C[C@@H](C)[C@@H]3CCC(=O)[C@@]3(C)[C@@H](O)[C@H]12` too.
Response: 110%

Prompt: Please give the result for `C=C1C(=O)O[C@@H]2C[C@@H](C)[C@@H]3C=CC(=O)[C@@]3(C)[C@@H](OC(=O)CCCC(=O)O[C@H]3[C@@H]4C(=C)C(=O)O[C@@H]4C[C@@H](C)[C@@H]4C=CC(=O)[C@]43C)[C@H]12` too.
Response: 48%

Prompt: Please give the result for `CCOC(=O)CC(=O)OCC` too.
Response: 114%

Prompt: Please give the result for `O=c1[nH]cc(F)c(=O)[nH]1` too.
Response: 186%

----------
- System: Mus musculus
- Test: In vivo antileukemic activity against P-388 lymphocytic leukemia in BDF1 male mice at 30(mg/kg)/day intraperitoneal dose expressed as T/C
- Assay type: functional
Measured property: T/C (%)
Provide only the numeric value, understood in %.

Reference set (4 entries):
C=C1C(=O)O[C@@H]2C[C@@H](C)[C@@H]3CCC(=O)[C@@]3(C)[C@@H](OC(=O)CCC(=O)O[C@H]3[C@@H]4C(=C)C(=O)O[C@@H]4C[C@@H](C)[C@@H]4CCC(=O)[C@]43C)[C@H]12 ... 157
C[C@@H]1C[C@H]2OC(=O)[C@@H](C)[C@H]2[C@H](OC(=O)CCC(=O)O[C@H]2[C@@H]3[C@H](C)C(=O)O[C@@H]3C[C@@H](C)[C@@H]3C=CC(=O)[C@]32C)[C@]2(C)C(=O)C=C[C@@H]12 ... 159
C=C1C(=O)O[C@@H]2C[C@@H](C)[C@@H]3C=CC(=O)[C@@]3(C)[C@@H](OC(=O)CC(=O)O[C@H]3[C@@H]4C(=C)C(=O)O[C@@H]4C[C@@H](C)[C@@H]4C=CC(=O)[C@]43C)[C@H]12 ... 168
C=C1C(=O)O[C@@H]2C[C@@H](C)[C@@H]3C=CC(=O)[C@@]3(C)[C@@H](OC(=O)CCCCC(=O)O[C@H]3[C@@H]4C(=C)C(=O)O[C@@H]4C[C@@H](C)[C@@H]4C=CC(=O)[C@]43C)[C@H]12 ... 69

Read the next record carefully.
Prompt: I would be grateful if you could share the reported T/C for `C=C1C(=O)O[C@@H]2C[C@@H](C)[C@@H]3C=CC(=O)[C@@]3(C)[C@@H](OC(=O)CCCC(=O)O[C@H]3[C@@H]4C(=C)C(=O)O[C@@H]4C[C@@H](C)[C@@H]4C=CC(=O)[C@]43C)[C@H]12` .
Response: 72
